Value source: patent US9926297B2

Some compounds, each annotated with its measured Emax.
Tested System: human muscarinic M3 receptor (Homo sapiens)
Sequence (P20309 whole entry): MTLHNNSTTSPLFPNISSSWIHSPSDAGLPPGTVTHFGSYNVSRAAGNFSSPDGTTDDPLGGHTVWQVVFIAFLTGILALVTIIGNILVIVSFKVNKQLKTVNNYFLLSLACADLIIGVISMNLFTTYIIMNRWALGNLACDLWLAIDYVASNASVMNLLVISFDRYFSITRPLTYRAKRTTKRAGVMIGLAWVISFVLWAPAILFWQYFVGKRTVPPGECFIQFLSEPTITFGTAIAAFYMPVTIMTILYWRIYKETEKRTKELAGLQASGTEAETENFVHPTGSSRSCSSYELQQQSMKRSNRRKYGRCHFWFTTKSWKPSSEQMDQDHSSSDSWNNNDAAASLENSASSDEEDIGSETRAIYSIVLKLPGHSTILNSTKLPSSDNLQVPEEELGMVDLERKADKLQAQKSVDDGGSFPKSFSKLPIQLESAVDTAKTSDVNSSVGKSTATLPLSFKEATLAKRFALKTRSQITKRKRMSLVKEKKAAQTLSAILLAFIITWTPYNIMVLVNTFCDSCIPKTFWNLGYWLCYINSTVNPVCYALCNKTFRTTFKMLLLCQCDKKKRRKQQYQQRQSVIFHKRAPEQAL
Assay Overview: Alphascreen Surefire phospho-ERK1/2 functional assay, M3
Condition: CHO, read-out: % Emax cf. ACh, M3, CHO cells stably expressing human M3; relative to ACh
# unit: % | format: bare number

Reference set (4 entries):
> print(dat)
                                   compound  property.measured  meas.value
1  CCOC(=O)N1CCC2(CC(N3CCC(C4CCCN4C(=O)NC)CC3)C2)C1 (single isomer, unassigned) [2-16 Isomer 2]               Emax           7
2  CCOC(=O)N1CCC2(CC(N3CCC([C@@H]4CCCN4C(=O)CCN)CC3)C2)C1 (single isomer, unassigned) [2-66 Isomer 2]               Emax           8
3  CCOC(=O)N1CCC2(CC(N3CCC(c4ccnn4CC)CC3)C2)C1 (single isomer, unassigned) [1-47 Isomer 2]               Emax          19
4  CCOC(=O)N1CCC2(CC(N3CCC(c4ncco4)CC3)C2)C1 (single isomer, unassigned) [1-23 Isomer 2]               Emax           9

Quickly give me recorded Emax for CCOC(=O)N1CCC2(CC(N3CCC(c4nc(Cl)c(Cl)[nH]4)CC3)C2)C1 (single isomer, unassigned) [1-5 Isomer 2] 2

Quickly give me recorded Emax for CCOC(=O)N1CCC2(CC(N3CCC(c4ccon4)CC3)C2)C1 (single isomer, unassigned) [1-43 Isomer 2] 8

Quickly give me recorded Emax for CCOC(=O)N1CCC2(CC(N3CCC(n4cccc4)CC3)C2)C1 (single isomer, unassigned) [1-32 Isomer 2] 16

----------
Tested System: human muscarinic M1 receptor (Homo sapiens, UniProt P11229)
Assay Overview: Alphascreen Surefire phospho-ERK1/2 functional assay, M1
Assay type: cell-based
Condition: CHO, read-out: % Emax cf. ACh, M1, CHO cells stably expressing human M1; relative to ACh
Property Measured: Emax (%)
# unit: % | format: bare number

Reference set (3 entries):
> print(dat)
                                   compound  meas.value
1  CCOC(=O)N1CCC2(CC(N3CCC(c4nc(Cl)c(Cl)[nH]4)CC3)C2)C1 (single isomer, unassigned) [1-5 Isomer 2]          94
2  CCOC(=O)N1CCC2(CC(N3CCC([C@@H]4CCCN4C(=O)CCN)CC3)C2)C1 (single isomer, unassigned) [2-66 Isomer 2]          96
3  COC(=O)N1CCC2(CC(N3CCC(c4nccs4)CC3)C2)C1 (single isomer, unassigned) [1-24 Isomer 2]         102

# input for lookup
Quickly give me recorded Emax for CCOC(=O)N1CCC2(CC(N3CCC(c4nnnn4C4CC4)CC3)C2)C1 (single isomer, unassigned) [1-67 Isomer 2] 37

----------
Tested System: human muscarinic M1 receptor (Homo sapiens, UniProt P11229)
Sequence (P11229 1-460): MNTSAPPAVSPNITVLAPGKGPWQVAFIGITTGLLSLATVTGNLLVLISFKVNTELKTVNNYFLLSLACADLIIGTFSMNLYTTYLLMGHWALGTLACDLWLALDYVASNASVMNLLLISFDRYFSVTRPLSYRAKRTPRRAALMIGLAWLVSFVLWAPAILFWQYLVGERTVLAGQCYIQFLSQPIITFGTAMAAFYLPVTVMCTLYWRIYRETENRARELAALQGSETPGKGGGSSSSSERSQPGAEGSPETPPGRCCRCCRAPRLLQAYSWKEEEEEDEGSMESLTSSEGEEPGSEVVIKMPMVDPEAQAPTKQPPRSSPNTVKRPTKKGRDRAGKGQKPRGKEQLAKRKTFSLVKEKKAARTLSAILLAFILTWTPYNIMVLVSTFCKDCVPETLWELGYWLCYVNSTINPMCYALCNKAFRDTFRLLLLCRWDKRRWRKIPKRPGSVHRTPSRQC
Assay Overview: Alphascreen Surefire phospho-ERK1/2 functional assay, M1
Assay type: cell-based
Condition: CHO cells stably expressing human M1; phospho-ERK1/2; * = variable results; read-out: pEC50 M1 (converted)
Property Measured: EC50 (nM)
# unit: nM | format: bare number

Reference set (2 entries):
> print(dat)
                                   molecule  meas.value
1  COC(=O)N1CCC2(CC(N3CCC(C4CCCNC4=O)CC3)C2)C1 (single isomer, unassigned) [4-2 Isomer 4]         794
2  CCOC(=O)N1CCC2(CC(N3CCC(n4nccn4)CC3)C2)C1 (single isomer, unassigned) [1-61 Isomer 2]         316

# input for lookup
Quickly give me recorded EC50 for CCOC(=O)N1CCC2(CC(N3CCC([C@@H]4CCCN4C(=O)N4CCCC4)CC3)C2)C1 (single isomer, unassigned) [2-32 Isomer 2] 2510
